Each item that follows carries a reported inhibition.
- Organism: Sus scrofa
- experiment summary: Inhibition of H+/K+ ATPase in pig stomach at 100 uM
- Type: tissue-based
// note: answer is a bare numeric in %

Lab note: COC(=O)[C@]1(C)CCC[C@@]2(C)[C@H]1[C@H](O)C[C@H]1C[C@H](O)[C@@]3(C)CC[C@]12C3 gave inhibition of 22

Lab note: CC(=O)O[C@H]1C[C@@H]2C[C@@H](OC(=O)c3ccccc3)[C@H]3[C@](C)(C(=O)O)CCC[C@]3(C)[C@]23CC[C@@]1(C)C3 gave inhibition of 94

Lab note: C[C@]12CC[C@]3(C1)[C@@H](C[C@@H](O)[C@H]1[C@](C)(C(=O)O)CCC[C@@]13C)C[C@@H]2O gave inhibition of 8

Lab note: COC(=O)[C@]1(C)CCC[C@@]2(C)[C@H]1[C@H](OC(=O)c1ccccc1)C[C@H]1C[C@H](O)[C@@]3(C)CC[C@]12C3 gave inhibition of 68

Lab note: CC(=O)OC[C@]1(C)CCC[C@@]2(C)[C@H]1[C@H](O)C[C@H]1C[C@@H](OC(C)=O)[C@@]3(C)CC[C@]12C3 gave inhibition of 62

Lab note: C[C@]12CC[C@]3(C1)[C@@H](C[C@@H](O)[C@H]1[C@](C)(CO)CCC[C@@]13C)C[C@H]2O gave inhibition of 7

---

Each item that follows carries a reported inhibition.
- Organism: Sus scrofa
- experiment summary: Inhibition of H+/K+ ATPase in pig stomach at 100 uM
- Type: tissue-based
// note: answer is a bare numeric in %

| structure as smiles | measured endpoint | endpoint unit | measured value |
| --- | --- | --- | --- |
| C[C@]12CC[C@]3(C1)[C@@H](C[C@@H](O)[C@H]1[C@](C)(CO)CCC[C@@]13C)C[C@@H]2O | inhibition | % | 24 |
| COC(=O)[C@]1(C)CCC[C@@]2(C)[C@H]1[C@H](OC(=O)c1ccccc1)C[C@H]1C[C@H](OC(C)=O)[C@@]3(C)CC[C@]12C3 | inhibition | % | 62 |

Lab note: COC(=O)[C@]1(C)CCC[C@@]2(C)[C@H]1[C@H](OC(=O)c1ccccc1)C[C@H]1C/C(=N\O)[C@@]3(C)CC[C@]12C3 gave inhibition of 75

Lab note: C[C@]12CC[C@]3(C1)[C@H](C/C2=N\O)C[C@@H](OC(=O)c1ccccc1)[C@H]1[C@](C)(C(=O)O)CCC[C@@]13C gave inhibition of 80

---

Each item that follows carries a reported inhibition.
- Species on record: Sus scrofa
- experiment summary: Inhibition of H+/K+ ATPase in pig stomach at 100 uM
- Assay type: tissue-based
Respond with the figure and its unit, in that order.

| structure as smiles | inhibition |
| --- | --- |
| C[C@]12CC[C@]3(C1)[C@@H](C[C@@H](OC(=O)c1ccccc1)[C@H]1[C@](C)(C(=O)O)CCC[C@@]13C)C[C@@H]2O | 72% |
| CC(=O)O[C@@H]1C[C@H]2CC(=O)[C@@]3(C)CC[C@@]2(C3)[C@@]2(C)CCC[C@@](C)(C(=O)O)[C@H]12 | 33% |
| CC(=O)OC[C@]1(C)CCC[C@@]2(C)[C@H]1[C@H](O)C[C@H]1C[C@H](OC(C)=O)[C@@]3(C)CC[C@]12C3 | 79% |

Lab note: CC(=O)O[C@@H]1C[C@@H]2C[C@@H](OC(=O)c3ccccc3)[C@H]3[C@](C)(C(=O)O)CCC[C@]3(C)[C@]23CC[C@@]1(C)C3 gave inhibition of 98%

---

- Organism: Sus scrofa
- experiment summary: Inhibition of H+/K+ ATPase in pig stomach at 100 uM
- Type: tissue-based
measured endpoint: inhibition (%)
// note: answer is a bare numeric in %

| structure as smiles | endpoint unit | inhibition |
| --- | --- | --- |
| COC(=O)[C@]1(C)CCC[C@@]2(C)[C@H]1[C@H](OC(=O)c1ccccc1)C[C@H]1C[C@@H](OC(C)=O)[C@@]3(C)CC[C@]12C3 | % | 61 |
| C[C@@]12CC[C@]3(C1)[C@H](CC2=O)C[C@@H](OC(=O)c1ccccc1)[C@H]1[C@](C)(CO)CCC[C@@]13C | % | 45 |

Could you now look at the following molecule, please?
Lab note: C[C@]12CC[C@]3(C1)[C@H](CC2=O)C[C@@H](OC(=O)c1ccccc1)[C@H]1[C@@](CO)(C(=O)O)CCC[C@@]13C gave inhibition of 24

---

- Species: Sus scrofa
- experiment summary: Inhibition of H+/K+ ATPase in pig stomach at 10 uM
- Type: tissue-based
measured endpoint: inhibition
Respond with the figure and its unit, in that order.

For orientation, consider the following solved cases.
| structure as smiles | measured value |
| --- | --- |
| C[C@]12CC[C@]3(C1)[C@@H](C[C@@H](O)[C@H]1[C@](C)(CO)CCC[C@@]13C)C[C@H]2O | -3% |
| CC(=O)O[C@@H]1C[C@@H]2C[C@@H](OC(=O)c3ccccc3)[C@H]3[C@](C)(C(=O)O)CCC[C@]3(C)[C@]23CC[C@@]1(C)C3 | 38% |
| COC(=O)[C@]1(C)CCC[C@@]2(C)[C@H]1[C@H](OC(=O)c1ccccc1)C[C@H]1C[C@@H](O)[C@@]3(C)CC[C@]12C3 | 59% |
| C[C@]12CC[C@]3(C1)[C@@H](C[C@@H](OC(=O)c1ccccc1)[C@H]1[C@](C)(C(=O)O)CCC[C@@]13C)C[C@@H]2O | 12% |

Lab note: CC(=O)OC[C@]1(C)CCC[C@@]2(C)[C@H]1[C@H](OC(C)=O)C[C@H]1C[C@H](OC(C)=O)[C@@]3(C)CC[C@]12C3 gave inhibition of 18%

Lab note: COC(=O)[C@]1(C)CCC[C@@]2(C)[C@H]1[C@H](OC(=O)c1ccccc1)C[C@H]1C/C(=N\O)[C@@]3(C)CC[C@]12C3 gave inhibition of 67%

Lab note: CC(=O)O[C@H]1C[C@@H]2C[C@@H](OC(=O)c3ccccc3)[C@H]3[C@](C)(C(=O)O)CCC[C@]3(C)[C@]23CC[C@@]1(C)C3 gave inhibition of 21%

Lab note: CC(=O)OC[C@]1(C)CCC[C@@]2(C)[C@H]1[C@H](OC(=O)c1ccccc1)C[C@H]1CC(=O)[C@@]3(C)CC[C@]12C3 gave inhibition of 71%

---

- Organism: Sus scrofa
- experiment summary: Inhibition of H+/K+ ATPase in pig stomach at 100 uM
- Type: tissue-based
Each item that follows carries a reported inhibition.
// note: answer is a bare numeric in %

| structure as smiles | inhibition, % |
| --- | --- |
| CC(=O)OC[C@]1(C)CCC[C@@]2(C)[C@H]1[C@H](OC(C)=O)C[C@H]1C[C@H](OC(C)=O)[C@@]3(C)CC[C@]12C3 | 57 |
| CC(=O)OC[C@]1(C)CCC[C@@]2(C)[C@H]1[C@H](OC(=O)c1ccccc1)C[C@H]1CC(=O)[C@@]3(C)CC[C@]12C3 | 72 |
| C[C@]12CC[C@]3(C1)[C@@H](CC(=O)[C@H]1[C@](C)(C(=O)O)CCC[C@@]13C)CC2=O | 12 |

Could you now look at the following molecule, please?
Lab note: C[C@]12CC[C@]3(C1)[C@H](C[C@H]2O)C[C@@H](OC(=O)c1ccccc1)[C@H]1[C@](C)(C(=O)O)CCC[C@@]13C gave inhibition of 30

---

Each item that follows carries a reported inhibition.
- Species on record: Sus scrofa
- experiment summary: Inhibition of H+/K+ ATPase in pig stomach at 1 uM
- Type: tissue-based
// note: answer is a bare numeric in %

| structure as smiles | measured value |
| --- | --- |
| C[C@]12CC[C@]3(C1)[C@H](C[C@H]2O)C[C@@H](OC(=O)c1ccccc1)[C@H]1[C@](C)(C(=O)O)CCC[C@@]13C | -4 |
| CC(=O)O[C@H]1C[C@@H]2C[C@@H](O)[C@H]3[C@](C)(C(=O)O)CCC[C@]3(C)[C@]23CC[C@@]1(C)C3 | 2 |
| C[C@]12CC[C@]3(C1)[C@@H](CC(=O)[C@H]1[C@](C)(C(=O)O)CCC[C@@]13C)CC2=O | -1 |
| COC(=O)[C@]1(C)CCC[C@@]2(C)[C@H]1[C@H](OC(=O)c1ccccc1)C[C@H]1C[C@@H](O)[C@@]3(C)CC[C@]12C3 | 12 |
| C[C@]12CC[C@]3(C1)[C@H](C/C2=N\O)C[C@@H](OC(=O)c1ccccc1)[C@H]1[C@](C)(C(=O)O)CCC[C@@]13C | 11 |
| CC(=O)O[C@@H]1C[C@H]2CC(=O)[C@@]3(C)CC[C@@]2(C3)[C@@]2(C)CCC[C@@](C)(C(=O)O)[C@H]12 | 1 |

Lab note: CC(=O)OC[C@]1(C)CCC[C@@]2(C)[C@H]1[C@H](O)C[C@H]1C[C@@H](OC(C)=O)[C@@]3(C)CC[C@]12C3 gave inhibition of -2

Lab note: COC(=O)[C@]1(C)CCC[C@@]2(C)[C@H]1[C@H](OC(=O)c1ccccc1)C[C@H]1CC(=O)[C@@]3(C)CC[C@]12C3 gave inhibition of 36

Lab note: C[C@]12CC[C@]3(C1)[C@@H](C[C@@H](OC(=O)c1ccccc1)[C@H]1[C@](C)(C(=O)O)CCC[C@@]13C)C[C@@H]2O gave inhibition of 1
